# protocol.summary: chemical genetic growth profiling, strain panel (AID 1159580);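 note: tested at 20 µM; growth read once vehicle control cultures reached saturation at 30 °C; 1 = growth at the plate median or of vehicle wells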
# measurement.conditions: S. cerevisiae deletion strains, growth OD, locus YFR003C, strain YPI1
The whole screen tested about 5,500 compounds, of which about 2,000 (36%) were called active. Another 18% or so got no clear call; they are omitted. Cut-off read from the data, not from the text of the source: active = normalized growth mostly below about 0.91 (no sharp cut-off); inconclusive = no clear call, values can overlap the other calls; inactive = mostly above about 0.92. The list shows a part of the results.
Select the correct class. Options are active, inactive and nothing else.

>>> group("FC(F)(F)c1ccnc(N2CCCN(C(=S)Nc3ccc(Cl)cc3Cl)CC2)n1")
"inactive"
>>> group("Cc1c(-c2ccnn2C(=O)c2ccco2)cnn1-c1ccccc1")
"inactive"
>>> group("O=C(/C=C/Sc1nc2ccccc2s1)c1ccc(Cl)cc1")
"inactive"
>>> group("Cc1onc(-c2c(F)cccc2Cl)c1C(=O)ON=C1C2CC3CC(C2)CC1C3")
"active"
>>> group("O=C(Nc1ccc(OC(F)(F)F)cc1)N1CCN(c2nc(-c3ccccc3)ns2)CC1")
"inactive"
>>> group("Cc1ccc(NS(=O)(=O)c2ccc(Cl)cc2)c(N=Cc2cc(Cl)cc(Cl)c2O)c1")
"inactive"
>>> group("CC(C)(C)c1ccc(C(=O)NNc2c(Cl)cccc2Cl)cc1")
"inactive"
>>> group("CC(C)(C)c1ccc(C(=O)Nc2ccc(C(F)(F)F)cc2)s1")
"inactive"

What outcome does the record of this test show for Cc1onc(-c2c(Cl)cccc2Cl)c1C(=O)NNc1c(Cl)cccc1Cl ?
inactive

What outcome does the record of this test show for Cc1c(C(=S)Nc2ccccc2)sc2ccccc12 ?
inactive

What outcome does the record of this test show for O=[N+]([O-])c1ccc(Sc2ssc(=S)c2-c2ccccc2)nc1 ?
inactive

====

# protocol.summary: chemical genetic growth profiling, strain panel (AID 1159580)
# measurement.conditions: S. cerevisiae deletion strains, growth OD, locus YJL129C, strain trk1
Among all 5,500 compounds or so, about 2,000 (36%) were called active. Not shown: some 18% with an inconclusive outcome. Rule as the data show it: active = normalized growth mostly below about 0.91 (no sharp cut-off); inconclusive = no clear call, values can overlap the other calls; inactive = mostly above about 0.92. The list shows a part of the results.
Select the correct class. Options are active, inactive and nothing else.

>>> group("O=C1CC2OCC=C3CN4CC[C@]56c7ccccc7N1C5[C@H]2[C@H]3CC46 (some centres not stated)")
"inactive"
>>> group("COc1c(OC)c2occc2c2oc(=O)ccc12")
"inactive"
>>> group("OCc1ccccc1O")
"inactive"

What outcome does the record of this test show for O=C1NC(=O)C(=O)C(=O)N1 ?
inactive

What outcome does the record of this test show for CC(C)NC[C@H](O)COc1cccc2ccccc12 ?
inactive

What outcome does the record of this test show for Cc1coc2c1C(=O)C(=O)c1c-2ccc2c1CCCC2(C)C ?
active

====

So I've got a bunch of molecules here, and I need their normalized growth values.
# protocol.summary: chemical genetic growth profiling, strain panel (AID 1159580)
# measurement.conditions: S. cerevisiae deletion strains, growth OD, locus YMR277W, strain FCP1, active compounds read low
Screen size: about 5,500 compounds; about 2,000 (36%) were called active. About 18% were inconclusive and are not listed. The list shows a part of the results.
Give bare numbers.

Worked examples follow.
>>> obs_value("O=[N+]([O-])c1ccc2oc(C(O)c3cccc(Cl)c3)cc2c1 (stereo not given)")
0.952
>>> obs_value("O=[N+]([O-])c1ccc2oc(C(O)c3ccc(-c4ccccc4)cc3)cc2c1 (stereo not given)")
0.994

Please give normalized growth for each item listed below.
1. ClC1=C(C=Nc2ccc(Cl)cc2)CSc2ccc(Cl)cc21
2. O=C(NNc1ccc(I)cc1)c1cc(Cl)cc(Cl)c1
3. O=C(Nc1ccc(OC(F)(F)F)cc1)N1CCN(c2nc(-c3ccccc3)ns2)CC1

[0.933, 0.931, 0.989]

====

# protocol.summary: chemical genetic growth profiling, strain panel (AID 1159580)
# measurement.conditions: S. cerevisiae deletion strains, growth OD, locus YLR342W, strain FKS1 (second series)
In all, about 5,500 compounds went through this assay and about 2,000 (36%) were called active. About 18% were inconclusive and are not listed. No stated cut-off is given here; in the data, active means normalized growth mostly below about 0.91 (no sharp cut-off); inconclusive means no clear call, values can overlap the other calls; inactive means mostly above about 0.92. The list shows a part of the results.
Select the correct class. Options are active, inactive and nothing else.

>>> group("COC(=O)[C@@H]1OC(=O)[C@H]2O[C@@]23[C@@]1(C)CCC1[C@@]2(C)CCC(=O)C(C)(C)C2C[C@@H](OC(C)=O)[C@]13C (stereo partly specified)")
"inactive"

What outcome does the record of this test show for Cc1cccc(Nc2ccccc2C(=O)O)c1C ?
active

What outcome does the record of this test show for CCCCNc1ccc(C(=O)OCCN(C)C)cc1 ?
inactive

What outcome does the record of this test show for CC(=O)N[C@@H](CS)C(=O)O ?
inactive

What outcome does the record of this test show for Clc1cccc(Cl)c1NC1=NCCN1 ?
inactive

What outcome does the record of this test show for Cc1c(Cl)cccc1Nc1ccccc1C(=O)O ?
active

====

# protocol.summary: chemical genetic growth profiling, strain panel (AID 1159580)
# measurement.conditions: S. cerevisiae deletion strains, growth OD, locus YHR079C, strain IRE1 (second series)
In all, about 5,500 compounds went through this assay and about 2,000 (36%) were called active. Not shown: some 18% with an inconclusive outcome. No stated cut-off is given here; in the data, active means normalized growth mostly below about 0.91 (no sharp cut-off); inconclusive means no clear call, values can overlap the other calls; inactive means mostly above about 0.92. Some of the results follow.
Select the correct class. Options are active, inactive and nothing else.

Example cases with answers are listed next.
>>> group("C=C1C(C)C2C(Cc3ccccc3)NC(=O)C23OC(=O)/C=C/C(=O)CCCC(C)C/C=C/C3C1O (stereo unspecified)")
"inactive"
>>> group("O=C1NC(=O)C(=O)C(=O)N1")
"inactive"
>>> group("C=C1C(=O)OC2CC1C(OC(C)=O)C/C(C)=C/CC/C(C)=C/CC[C@]2(C)O (stereo partly specified)")
"inactive"
>>> group("CC1(C)O[C@@H]2CC3C4CCC5=CC(=O)CCC5(C)C4(F)C(O)CC3(C)[C@]2(C(=O)CCl)O1 (stereo partly specified)")
"inactive"
>>> group("COc1cc(-c2coc3cc(OCc4ccccc4)c(OC)c(O)c3c2=O)cc(O)c1OC")
"inactive"

What outcome does the record of this test show for O=c1[nH]oc2c1CCNC2 ?
inactive

What outcome does the record of this test show for O=C1[C@H](CCC(O)c2ccc(F)cc2)[C@@H](c2ccc(O)cc2)N1c1ccc(F)cc1 (stereo partly specified) ?
inactive

What outcome does the record of this test show for COc1cc(-c2coc3cc(OCc4ccccc4)c(OC)c(O)c3c2=O)cc(OCc2ccccc2)c1OC ?
inactive

What outcome does the record of this test show for CC1=CC2C(CC1=O)C(C)=CCC2C(C)C (stereo unspecified) ?
inactive

What outcome does the record of this test show for CC[C@H](C)C(=O)O[C@H]1C[C@@H](C)C=C2C=C[C@H](C)[C@H](CC[C@@H]3C[C@@H](O)CC(=O)O3)[C@H]21 ?
inactive

What outcome does the record of this test show for C=C1CCC(C2CC(=O)OC2=O)C(=O)CCC2C1CC2(C)C (stereo unspecified) ?
inactive

====

# protocol.summary: chemical genetic growth profiling, strain panel (AID 1159580);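 note: tested at 20 µM; growth read once vehicle control cultures reached saturation at 30 °C; 1 = growth at the plate median or of vehicle wells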
# measurement.conditions: S. cerevisiae deletion strains, growth OD, locus YNL271C, strain bni1
Among all 5,500 compounds or so, about 2,000 (36%) were called active. Inconclusive results (about 18%) are left out. Cut-off read from the data, not from the text of the source: active = normalized growth mostly below about 0.91 (no sharp cut-off); inconclusive = no clear call, values can overlap the other calls; inactive = mostly above about 0.92. The list shows a part of the results.
Select the correct class. Options are class 1 = active, class 0 = inactive and nothing else.

Example cases with answers are listed next.
>>> group("CCC(C)(C)C(=O)O[C@H]1C[C@@H](C)C=C2C=C[C@H](C)[C@H](CC[C@@H]3C[C@@H](O)CC(=O)O3)[C@H]21")
"class 0"
>>> group("Cc1cccc(Nc2ccccc2C(=O)O)c1C")
"class 0"

What outcome does the record of this test show for Oc1ccc(Cl)cc1Cc1cc(Cl)ccc1O ?
class 1

What outcome does the record of this test show for O=C(O)c1ccccc1-c1c2cc(Br)c(=O)cc-2oc2[c]([Hg])c(O)c(Br)cc12 ?
class 1

What outcome does the record of this test show for Cc1c(Cl)cccc1Nc1ccccc1C(=O)O ?
class 1

====

# protocol.summary: chemical genetic growth profiling, strain panel (AID 1159580);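 note: tested at 20 µM; growth read once vehicle control cultures reached saturation at 30 °C; 1 = growth at the plate median or of vehicle wells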
# measurement.conditions: S. cerevisiae deletion strains, growth OD, locus YPL078C, strain atp4, active compounds read low
About 2,000 (36%) of roughly 5,500 compounds were called active. Inconclusive results (about 18%) are left out. The list shows a part of the results.
Classify: class 1 when normalized growth is strictly less than 1; class 0 when normalized growth is not.

Example cases with answers are listed next.
>>> group("Cn1c(=O)c2[nH]cnc2n(C)c1=O")
"class 0"
>>> group("COc1ccc2c(c1)O[C@H]1c3ccc(OC)cc3OC[C@@H]21")
"class 0"

Decide: normalized growth of C#CCCCCCCCCCCCC(O)CC(O)COC(C)=O (stereo unspecified) strictly below 1?
class 1

Decide: normalized growth of Nc1ccn(C2O[C@H](CO)[C@@H](O)[C@@H]2O)c(=O)n1 (stereo partly specified) strictly below 1?
class 0

Decide: normalized growth of COc1cc2occ(-c3ccccc3)c(=O)c2c(OC)c1C strictly below 1?
class 1

====

# protocol.summary: chemical genetic growth profiling, strain panel (AID 1159580);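 note: tested at 20 µM; growth read once vehicle control cultures reached saturation at 30 °C; 1 = growth at the plate median or of vehicle wells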
# measurement.conditions: S. cerevisiae deletion strains, growth OD, locus YJR075W, strain HOC1, active compounds read low
Among all 5,500 compounds or so, about 2,000 (36%) were called active. Inconclusive results (about 18%) are left out. This is one part of the list.
So I've got a bunch of compounds here, and I need their normalized growth values.

Worked examples follow.
>>> obs_value("CCCCN(CCCC)CCCOC(=O)c1ccc(N)cc1")
"0.981 (inactive)"
>>> obs_value("CC[C@H](C)C(=O)O[C@H]1C[C@@H](C)C=C2C=C[C@H](C)[C@H](CC[C@@H]3C[C@@H](O)CC(=O)O3)[C@H]21")
"0.997 (inactive)"
>>> obs_value("COc1cc2occ(-c3ccccc3)c(=O)c2c(OC)c1C")
"0.908 (inactive)"
>>> obs_value("COc1ccc2c(c1)CCC(c1ccccc1)=C2c1ccc(OCCN2CCCC2)cc1")
"0.593 (active)"
>>> obs_value("N#Cc1ncc(C(F)(F)F)cc1Oc1ccc(Cl)cc1")
"0.594 (active)"

Please give normalized growth for each item listed below.
1. CO[C@@]1(NC(=O)CSCC#N)C(=O)N2C(C(=O)O)=C(CSc3nnnn3C)CSC21 (stereo partly drawn)
2. NC(=O)c1cccc(N)c1
3. COc1cc(-c2coc3cc(OCc4ccccc4)c(OC)c(O)c3c2=O)cc(OCc2ccccc2)c1OC
4. CCCCOC(=O)c1ccccc1C(=O)OCCCC
5. CCC(C)(C)C(=O)O[C@H]1C[C@@H](C)C=C2C=C[C@H](C)[C@H](CC[C@@H]3C[C@@H](O)CC(=O)O3)[C@H]21

1. 1.01 (inactive)
2. 1.01 (inactive)
3. 1.01 (inactive)
4. 0.991 (inactive)
5. 1 (inactive)

Please give normalized growth for each item listed below.
1. CC1(C)O[C@H]2[C@H](O)C[C@](O)(C(N)=O)C[C@H]2O1
2. CC(=O)c1cnn(-c2ccccc2)c1C
3. COc1cc(-c2coc3cc(OC)c(OC)c(OC)c3c2=O)cc(OC)c1OC
4. CCCCOC(=O)c1ccc(N)cc1
5. N#Cc1c(F)cccc1Oc1ccc(F)cc1
6. Oc1ccc2c(c1)OCC1c3cc4c(cc3OC21)OCO4 (stereo not drawn)
7. CC(=O)c1ccc(-c2cccs2)s1
8. O=C1CCC(c2cccs2)=NN1

1.03 (inactive)
1 (inactive)
0.975 (inactive)
0.888 (inactive)
0.946 (inactive)
0.999 (inactive)
0.995 (inactive)
1.01 (inactive)

Please give normalized growth for each item listed below.
1. CC[C@H](C)C(=O)O[C@H]1CCC=C2C=C[C@H](C)[C@H](CC[C@@H]3C[C@@H](O)CC(=O)O3)[C@H]21
2. C=CCSCC1Nc2cc(Cl)c(S(N)(=O)=O)cc2S(=O)(=O)N1 (stereo not drawn)

1. 0.988 (inactive)
2. 1.01 (inactive)
